system.name: Human σ2/TMEM97 receptor (Homo sapiens)
Sequence (Q5BJF2 whole entry): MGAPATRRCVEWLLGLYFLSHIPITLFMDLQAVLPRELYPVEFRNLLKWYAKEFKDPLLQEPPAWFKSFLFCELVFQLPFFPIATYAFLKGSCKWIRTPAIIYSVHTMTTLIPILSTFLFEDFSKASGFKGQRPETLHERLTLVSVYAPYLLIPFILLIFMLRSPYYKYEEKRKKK
experiment: Binding assay to human σ2/TMEM97 receptor ([3H]-DTG, transfected HEK-293 membranes)
assay.conditions: human σ2/TMEM97, [3H]-DTG 10 nM, binding expressed as Ki, read-out: Binding σ-2
reported.endpoint: Ki

Ask: I would be grateful if you could share the reported Ki for OCC1(CO)CCN(Cc2cnc3c(-c4ccnc(C(F)(F)F)c4)cnn3c2)CC1 [Example 59] .
Result: > 1 µM

Ask: I would be grateful if you could share the reported Ki for FC(F)(F)c1ccc(-n2ccc3cc(CN4CCC5(CC4)COC5)cnc32)cn1 [Example 42] .
Result: 0.1 to 0.5 µM

Ask: I would be grateful if you could share the reported Ki for FC(F)(F)c1cnccc1-c1cnn2cc(CN3CCC4(CC3)COC4)cnc12 [Example 19] .
Result: > 1 µM

Ask: I would be grateful if you could share the reported Ki for FC(F)(F)c1ccc(-c2cnn3cc(CN4CC5(CCOCC5)C4)cnc23)cn1 [Example 22] .
Result: > 1 µM

Ask: I would be grateful if you could share the reported Ki for COCC1CCN(Cc2cnc3c(ccn3-c3ccnc(C(F)(F)F)c3)c2)CC1 [Example 39] .
Result: 0.1 to 0.5 µM

Ask: I would be grateful if you could share the reported Ki for FC(F)(F)c1cc(-c2cnn3cc(CN4CCN(C5COC5)CC4)cnc23)ccn1 [Example 35] .
Result: > 1 µM

Ask: I would be grateful if you could share the reported Ki for FC(F)(F)c1ncccc1-n1ccc2cc(CN3CC4(CCOCC4)C3)cnc21 [Example 56] .
Result: > 1 µM

Ask: I would be grateful if you could share the reported Ki for c1cc(-c2cnn3cc(CN4CCCC4)cnc23)ccn1 [Example 2] .
Result: > 1 µM

Ask: I would be grateful if you could share the reported Ki for N#Cc1ncccc1-n1ccc2cc(CN3CCC4(CCOCC4)CC3)cnc21 [Example 53] .
Result: 0.5 to 1 µM

Ask: I would be grateful if you could share the reported Ki for CCN(CC)Cc1cnc2c(-c3ccnc(C(F)(F)F)c3)cnn2c1 [Example 12] .
Result: > 1 µM

Ask: I would be grateful if you could share the reported Ki for CCOCC1CCN(Cc2cnc3c(ccn3-c3ccnc(C(F)(F)F)c3)c2)CC1 [Example 40] .
Result: 0.1 to 0.5 µM

Data provenance: patent US20240246966A1
